// TI lookup, one value per entry
# Assay Name: Therapeutic index, ratio of LC50 for human Panel NCI-60 (60 carcinoma cell lines) to GI50 for human Panel NCI-60 (60 carcinoma cell lines)
# Type: functional
# output: bare number, no unit

- Compound Smiles: "COc1cccc2c1C(=O)c1c(O)c3c(c(O)c1C2=O)C[C@@](O)(C(=O)CO)C[C@@H]3O[C@H]1C[C@H](N)[C@H](O)[C@H](C)O1"
  TI: 134

Ask: Looking for the measured TI of O=C1COCCN1c1ccc(NCc2cn(Cc3ccc(F)cc3)c3ccccc23)cc1 , can you help?
Reply: 54

Ask: // same read-out, input: O=C1COCCN1c1ccc(NCc2cn(Cc3ccc(Cl)cc3)c3ccccc23)cc1
Reply: 34

Data provenance: ChEMBL document CHEMBL4814018
